Exercise: state measured protein stability index for each of the variants provided.
B1: NEK8 (parent)
chain: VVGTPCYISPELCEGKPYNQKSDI

variants of: B1; test: protein stability index of a GFP-peptide fusion (GPS, HEK-293T) (PSI 1-6); higher = more stable; details: c terminus: a fixed tail appended;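 note: lentivirally expressed fusions sorted by FACS into six bins by GFP to DsRed ratio, PSI derived from sequencing read proportions per bin multiplied by bin number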
Answer with a number only.

// sample MVGTPCYISPELCEGKPYNQKSDI [V1M] , its protein stability index was 3.42

// sample VVGTPCYISPELCEGKAYNQKSDI [P17A] , its protein stability index was 2.91

// sample QVGTPCYISPELCEGKPYNQKSDI [V1Q] , its protein stability index was 4.14

// sample VVGTPCYISPELWEGKPYNQKSDI [C13W] , its protein stability index was 1.92

// sample VVGTPCYISPELCYGKPYNQKSDI [E14Y] , its protein stability index was 2.25

// sample VVGTPCYISPELCEGKPYNQKQDI [S22Q] , its protein stability index was 2.85

// sample HVGTPCYISPELCEGKPYNQKSDI [V1H] , its protein stability index was 2.77

// sample VVGTPCYISPELCEGKPYNQASDI [K21A] , its protein stability index was 2.99

// sample VVGTPCYISPQLCEGKPYNQKSDI [E11Q] , its protein stability index was 2.31

// sample VVGTPCYISPELCEGKPYNQKSVI [D23V] , its protein stability index was 2.02

// sample VVGTPCYISPELAEGKPYNQKSDI [C13A] , its protein stability index was 2.71

// sample VVGTPCYISPNLCEGKPYNQKSDI [E11N] , its protein stability index was 2.66

// sample VVGLPCYISPELCEGKPYNQKSDI [T4L] , its protein stability index was 2.39

// sample VVGTPCYISDELCEGKPYNQKSDI [P10D] , its protein stability index was 3.23

// sample VVGTPCYISPELCEGSPYNQKSDI [K16S] , its protein stability index was 2.17
